Listed below: soluble fraction (log2) values for each entry.
- measurement-description: soluble fraction after stress (log2 fold change); higher = more stays soluble; pooled small domains, quantitative proteomics
- conditions-used: stress: pH 4
recorded-endpoint: soluble fraction (log2)

ordered-residues: HMAHPRTHEALNPLWEKYLGPNAGNDFFLSGGTSLKALMFLKDLEKTLNKRIAIHAFFKDPTYEHVVSD
recorded-endpoint: soluble fraction (log2)
inequality-sign: =
result-number: -0.467

ordered-residues: HMNSSTYIVTFKVDGEEDIVETYQWGDRIIVPEVEAKDDYVFIGWDAQIPEFMPERNLEFTAI
recorded-endpoint: soluble fraction (log2)
inequality-sign: =
result-number: -1.67

ordered-residues: HMYPNEFPRKVMSVFESSGLEMFRTIEMLLAIPEYETPLPYGSGVSRSDIFVLAKSAGNLVSITV
recorded-endpoint: soluble fraction (log2)
inequality-sign: =
result-number: -0.314

ordered-residues: HMWTIDPLDWKTENADQIVEKVMSEAKENAIILLHDRYEASVEAALRIVDLLKEQGYTFVTADKLV
recorded-endpoint: soluble fraction (log2)
inequality-sign: =
result-number: -0.421

ordered-residues: HMQRDELRYDQFLTALQNKEFTQLNVRFDDYTYLVTGTFQSGRPFSTRGPVSEEFIRLIESSGVQVTWLPM
recorded-endpoint: soluble fraction (log2)
inequality-sign: =
result-number: -1.28

ordered-residues: HMVNHEERKRLIAEATWRTISHVGIEQASVRTIAKEAGLSLGALRYYFTTQEELLRFSMQLVQERV
recorded-endpoint: soluble fraction (log2)
inequality-sign: =
result-number: 0.0598

ordered-residues: HMQVPWYQRLKEKRLEYGVSQNKLATHIGISRQYMSEIETGKVTPSDSLQATLFDILEQFNPDA
recorded-endpoint: soluble fraction (log2)
inequality-sign: =
result-number: -0.74

ordered-residues: HMETYEFNITDKEQTGMRVDKLLPELNSDWSRNQIQDWIKAGLVVANDKVVKSNYKVKLNDHIVVTEKEV
recorded-endpoint: soluble fraction (log2)
inequality-sign: =
result-number: -0.2

ordered-residues: HMNEKGTNSTINEITRISKPGRRVYVGSAEIPKVKSGRGLVLISTSKGVMTGAEAAKAKLGGELLLKV
recorded-endpoint: soluble fraction (log2)
inequality-sign: =
result-number: 0.129

ordered-residues: HMTQEMPAEVKKKADAFNNAMDEENYTEAKAILAELEQNTAPSYPLLLQMQTRYAFETASWE
recorded-endpoint: soluble fraction (log2)
inequality-sign: =
result-number: -0.974

ordered-residues: HMRKDRKVLMERGRHIFNDLLEKEGIVATNQLMTKLLASHHLRNRDELYLMLANDDISLSSKEIKDLS
recorded-endpoint: soluble fraction (log2)
inequality-sign: =
result-number: 0.22

ordered-residues: HMLTDMSKIRKVLKLYGKGNSKLFISTYLSLSRNTVKKYISLFEVSGKTIEEILAKSDSELELLFSG
recorded-endpoint: soluble fraction (log2)
inequality-sign: =
result-number: -0.0775

ordered-residues: HMQKIENYDQFVQAFKRLSGLDLKLYKENQMKRRINNFINNHGFKENYDQFFQAITGNKELYNAFFKHLTI
recorded-endpoint: soluble fraction (log2)
inequality-sign: =
result-number: -0.395

ordered-residues: HMAVSNWQKLVSSIQTQLKILALYHGPEDGIYGPNTRSAIMLYEENIGLPVTGEPSRELLAHMLDQTD
recorded-endpoint: soluble fraction (log2)
inequality-sign: =
result-number: -0.194

ordered-residues: HMPSPFYIMDEVEAALDDTNLGRLITLFEELRDSSQLIVITHQKKTMEIADALYGVTMRGDGITTVVSQRL
recorded-endpoint: soluble fraction (log2)
inequality-sign: =
result-number: -2.24

ordered-residues: HMSAAPVGPWALSEFLDAVEKDSVERVTFDDAGKALVAVDADGGRHRVEILPSEGPEILAALRKHSVQFA
recorded-endpoint: soluble fraction (log2)
inequality-sign: =
result-number: -0.346

ordered-residues: HMSQLSDEQELRDIARGIIEGNPNEAEKYRAGRTGLLGFFVGKLMAETEGKANPRLASRILKELLE
recorded-endpoint: soluble fraction (log2)
inequality-sign: =
result-number: -0.441

ordered-residues: HMESSSQLGFELARLVESGNDEEARALVQAKELSEADERKWLYHLGNLLHAAGRPLQASAIWREVGT
recorded-endpoint: soluble fraction (log2)
inequality-sign: =
result-number: -0.436

ordered-residues: HMVKSYEVPDVSNLTVLEAEAKLQEMGFEIDEEQKEISSSDIESGRVVKTSPQAGSKRKEGAIITLYVSSG
recorded-endpoint: soluble fraction (log2)
inequality-sign: =
result-number: -0.433

ordered-residues: HMQTTKTGTITASSLYVRSGASTSHKVLGTVSKGKTVQIKDTQDGWHKISYNGDHGWVSGKYVSTT
recorded-endpoint: soluble fraction (log2)
inequality-sign: ≥
result-number: 0.43

ordered-residues: HMLPDLQKAIDTFLYEVDSRINTSFEELIDKLNSKEEAVAFFLALLEAVRWGFIKAEQESNSINIKK
recorded-endpoint: soluble fraction (log2)
inequality-sign: =
result-number: -1.49

ordered-residues: HMSDKPRYYINGNTLFISDKSVKKVLFSDLSGRSILHTTETAINIATFRGAHILTVIYTDGSTKSEVIF
recorded-endpoint: soluble fraction (log2)
inequality-sign: =
result-number: 0.235

ordered-residues: HMEQVLNVAVRRGELIMSSAAEQTVRIYSSAGSMVWQGKVSASDVTVELPSGVYVVNGKKVV
recorded-endpoint: soluble fraction (log2)
inequality-sign: =
result-number: -0.513

ordered-residues: HMQRDDMQIDRLIQIVFLLLSRNNLTAKQLAEELGVSTRTIYRDINILSVAGIPITSQKGYGGGLSLLQG
recorded-endpoint: soluble fraction (log2)
inequality-sign: =
result-number: -0.261

ordered-residues: HMPSYYKELQNYSPENPVVKKRKVHPDVVNAIKYLAEITDGNPMLIKAYAQMILAHVFTTMPLIDKSV
recorded-endpoint: soluble fraction (log2)
inequality-sign: =
result-number: 0.22

ordered-residues: HMNYLDVNIPVTSAVWMGKQLPEMGTLIYLTPDKDVEGMLFIKQATKDKPDGEYIEAKVLGYKEGRVLFDF
recorded-endpoint: soluble fraction (log2)
inequality-sign: =
result-number: -1.48

ordered-residues: HMTIERVKIKETPTGWLRVRETPDNNGSEIGRANVGEIYELLGSKGEWYHIVYKGKQGFISTKYAEKVL
recorded-endpoint: soluble fraction (log2)
inequality-sign: =
result-number: -0.124

ordered-residues: HMRAGALTTLTERERNVFDLVVTGHSNPEIARQLSIADVTVKTHVGHILSKLGVRDRVHLVIWAHRQGLAD
recorded-endpoint: soluble fraction (log2)
inequality-sign: =
result-number: 0.0561

ordered-residues: HMYNSYALTARELELVNYVLKGNSRREMAEDSGLKENTVASYMKRLYRKIKVHSRKELKELFM
recorded-endpoint: soluble fraction (log2)
inequality-sign: =
result-number: -0.422

ordered-residues: HMNNTIKFFVSQDDDSTRLDVFLSKKIENLTRSNIKKFINLNNVKINKATINSPSKKVKLYDEIEIKFSS
recorded-endpoint: soluble fraction (log2)
inequality-sign: =
result-number: -1.19

ordered-residues: HMNTPALRQRTQDVPALLIHFAKYFATKGQTPISFAPDFLEALKDYPWPGNVRELRNLVESMVV
recorded-endpoint: soluble fraction (log2)
inequality-sign: =
result-number: -0.0956

ordered-residues: HMGNVGEAIEALVKGFQEGNQFQTLLGVTGSGKTFTMANVIAALNKPTLIISHNKTLAAQLYLSLIHIS
recorded-endpoint: soluble fraction (log2)
inequality-sign: =
result-number: -0.255

ordered-residues: HMKSKYLIKIEGDFDEKDLYKYLINVSIVNHTKNNGFTEVEFYNDNYSLQQNFLKSMLNDGIIITEFKKVE
recorded-endpoint: soluble fraction (log2)
inequality-sign: =
result-number: -0.558
